Would you mind telling me the reported CC50 of each entry?
Tested on: A549
method description: Cytotoxicity against human A549 cells by MTT assay
Format: functional
condition description: read-out: LC50 (the source's name)
Give the value, in units of µM, as a plain number.

Prompt: # get_value(readout='CC50', item= `Cn1cncc1C(=O)C1=NCCc2c1[nH]c1ccccc21` )
Completion: 9.9

Prompt: And for `O[C@H]1/C=C\[C@H]2C[C@]34CN5CCCC/C=C\CC[C@](O)(C=C(c6nccc7c6[nH]c6ccccc67)[C@@H]3CC5)[C@@H]4N2CCC1` ?
Completion: 5.8

Prompt: And for `Cl.[O-][N+]1=C(C2=C[C@@]3(O)CC/C=C\CCCCN4CC[C@@H]2[C@]2(CC/C=C\CCCCN[C@H]23)C4)c2[nH]c3ccccc3c2CC1` ?
Completion: 5.7

Prompt: And for `O[C@@H]1CC[C@@]23C[C@]45CN6CCCC/C=C\CC[C@](O)(C=C(c7nccc8c7[nH]c7ccccc78)[C@@H]4CC6)[C@@H]5N2CC[C@@H]1O[C@@]12CC[C@@H](O3)[C@@H](O)CCN1[C@@H]1[C@]3(CN4CCCC/C=C\CC[C@]1(O)C=C(c1nccc5c1[nH]c1ccccc15)[C@@H]3CC4)C2` ?
Completion: 13

Prompt: And for `C1=C\CC[C@]23O[C@H]2[C@@H](c2nccc4c2[nH]c2ccccc24)[C@@H]2CCN(CCCC/1)C[C@@]21CCCCCCCCN[C@H]13` ?
Completion: 6.5

Prompt: And for `Cl.[O-][n+]1ccc2c([nH]c3ccccc32)c1C1=C[C@@]2(O)CC/C=C\CCCCN3CC[C@@H]1[C@]1(CC/C=C\CCCCN[C@H]12)C3` ?
Completion: 4.7

Prompt: And for COc1cccc2c1C(=O)c1c(O)c3c(c(O)c1C2=O)C[C@@](O)(C(=O)CO)C[C@@H]3O[C@H]1C[C@H](N)[C@H](O)[C@H](C)O1 [DOXORUBICIN] ?
Completion: 0.92

Prompt: And for `O[C@]12C=C(c3nccc4c3[nH]c3ccccc34)[C@@H]3CCN(CCCC/C=C\CC1)C[C@@]31C[C@@H]3C=C[C@H]4CCC[N@+]43[C@H]12.[Cl-]` ?
Completion: 4.6

Prompt: And for O[C@]12C=C(c3nccc4c3[nH]c3ccccc34)[C@@H]3CCN(CCCC/C=C\CC1)C[C@@]31C[C@@H]3/C=C\CCCCN3[C@H]12 [MANZAMINE A] ?
Completion: 8.3

Prompt: And for O[C@@H]1CCCN2[C@@H](CC1)C[C@]13CN4CCCC/C=C\CC[C@](O)(C=C(c5nccc6c5[nH]c5ccccc56)[C@@H]1CC4)[C@H]23 [32,33-DIHYDRO-31-HYDROXYMANZAMINE A] ?
Completion: 8.2

Prompt: And for `Cn1cncc1C(=O)c1nccc2c1[nH]c1ccccc12` ?
Completion: 12

* * *

Would you mind telling me the reported MIC of each entry?
System: Kocuria rhizophila
method description: Antibacterial activity against Kocuria rhizophila NBRC 12708 after 24 hrs by serial two fold dilution method
Assay type: functional
condition description: NBRC 12708, 24 h
Give the value, in units of µg/mL, as a plain number.

Prompt: # get_value(readout='MIC', item= `O[C@H]1/C=C\[C@H]2C[C@]34CN5CCCC/C=C\CC[C@](O)(C=C(c6nccc7c6[nH]c6ccccc67)[C@@H]3CC5)[C@@H]4N2CCC1` )
Completion: 6.3

Prompt: And for `C1=C\CC[C@]23O[C@H]2[C@@H](c2nccc4c2[nH]c2ccccc24)[C@@H]2CCN(CCCC/1)C[C@@]21CCCCCCCCN[C@H]13` ?
Completion: 100

Prompt: And for CC1(C)S[C@@H]2[C@H](NC(=O)[C@H](N)c3ccccc3)C(=O)N2[C@H]1C(=O)O [AMPICILLIN] ?
Completion: 0.39

Prompt: And for `O[C@@H]1CC[C@@]23C[C@]45CN6CCCC/C=C\CC[C@](O)(C=C(c7nccc8c7[nH]c7ccccc78)[C@@H]4CC6)[C@@H]5N2CC[C@@H]1O[C@@]12CC[C@@H](O3)[C@@H](O)CCN1[C@@H]1[C@]3(CN4CCCC/C=C\CC[C@]1(O)C=C(c1nccc5c1[nH]c1ccccc15)[C@@H]3CC4)C2` ?
Completion: 1.6
